Values compiled from patent EP4768499A1.

assay: Membrane permeability test using Caco-2 cells with preincubation; assay type: in vitro ADME; details: Caco-2; preincubation 20 to 24 hours; Apical FaSSIF/HBSS pH 6.0, Basal HBSS 4% BSA pH 7.4; 180 minutes; read-out: Caco2 Papp
Starred links: 1 amine or outer side, 2 acyl side, 3 side chain; linkers in the order of their positions; H or OH if unused. Positions of bridges follow the written chain, without caps; N, C: chain ends. Non-standard residues stand in square brackets, D forms with d. Residues, ends and D or L forms follow the SMILES beside them. *: point of attachment. NMeF = CN[C@@H](Cc1ccccc1)C(=O)O; NMeGABA = CN(CCCC(=O)[*:2])[*:1]; NMeI = CC[C@H](C)[C@H](NC)C(=O)O; hPhe = N[C@@H](CCc1ccccc1)C(=O)O; NMeβAla = CN(CCC(=O)[*:2])[*:1]; NMeL = CN[C@@H](CC(C)C)C(=O)O; NMeV = CN[C@H](C(=O)O)C(C)C; d(β3hA) = C[C@@H](N)CC(=O)O; NMeAbu = CC[C@H](NC)C(=O)O; NMeA = CN[C@@H](C)C(=O)O; Piperidide = C1CCN(*)CC1; Abu = CC[C@H](N)C(=O)O; NBuGly = CCCCNCC(=O)O; Sar = CNCC(=O)O; tBu = CC(C)(C)*
We begin with a simple list: items and their reported Papp A→B.
Just the number in ×10⁻⁶ cm/s, nothing appended.

Example entries begin here.
In: I am curious: what Papp A→B value has been reported for CC[C@H](C)[C@@H]1NC(=O)[C@H](C)NC(=O)[C@H](CC(C)C)N(C)C(=O)[C@H](COC(C)(C)C)NC(=O)[C@H](CC(C)C)N(C)C(=O)[C@@H]2CCCN2C(=O)[C@H](Cc2ccccc2)NC(=O)[C@H]([C@@H](C)CC)N(C)C(=O)[C@H](CC(C)C)N(C)C(=O)CCCN(C)C(=O)C[C@@H](C(=O)N2CCCCC2)NC(=O)[C@H](Cc2ccccc2)N(C)C(=O)[C@H](CC)N(C)C1=O [pd098] ([NMeGABA][NMeL][NMeI]FP[NMeL]S(tBu)[NMeL]AI[NMeAbu][NMeF]D-Piperidide; lactam N-13) ?
Out: 0.57

In: Please report the recorded Papp A→B for CCCCN1CC(=O)N[C@@H]([C@@H](C)CC)C(=O)N(C)[C@@H](CC(C)C)C(=O)N[C@@H](C(C)C)C(=O)N[C@H](C(=O)N2CCCCC2)CC(=O)N(C)[C@@H](C)C(=O)N(C)[C@@H](CC(C)C)C(=O)N[C@@H]([C@@H](C)O)C(=O)N(C)[C@@H](Cc2ccccc2)C(=O)N[C@@H](CC)C(=O)N(C)[C@@H](Cc2ccccc2)C(=O)N[C@@H](C)C(=O)N(C)CCC(=O)N[C@@H](CC(C)C)C1=O [pd026] ([NMeA][NMeL]T[NMeF][Abu][NMeF]A[NMeβAla]L[NBuGly]I[NMeL]VD-Piperidide; lactam N-14) .
Out: 0.58

In: Which Papp A→B reading was recorded for the compound CC[C@H](C)[C@H]1C(=O)N[C@@H](Cc2ccccc2)C(=O)N2CCC[C@H]2C(=O)N(C)[C@@H](CC(C)C)C(=O)N[C@@H](COC(C)(C)C)C(=O)N(C)[C@@H](Cc2ccccc2)C(=O)N[C@@H]([C@@H](C)O)C(=O)N(C)[C@@H](CC)C(=O)N2CCC[C@H]2C(=O)N(C)[C@@H](CC(C)C)C(=O)N[C@H](C(=O)N2CCCCC2)CC(=O)N(C)CCCC(=O)N(C)[C@@H](CC(C)C)C(=O)N1C [pd118] ([NMeGABA][NMeL][NMeI]FP[NMeL]S(tBu)[NMeF]T[NMeAbu]P[NMeL]D-Piperidide; lactam N-13) ?
Out: 0.46

In: Entry under review: CC[C@H](C)[C@@H]1NC(=O)[C@H](CC(C)C)N(C)C(=O)[C@H](C)N(C)C(=O)[C@H](Cc2ccccc2)N(C)C(=O)[C@@H]2CCCN2C(=O)[C@H](CC(C)C)N(C)C(=O)[C@H](CCc2ccccc2)NC(=O)CCN(C)C(=O)C[C@@H](C)NC(=O)[C@H](CC(C)C)N(C)C(=O)[C@H]([C@@H](C)O)NC(=O)CCN(C)C(=O)[C@H](C(C)C)N(C)C1=O [pd138] (cyclo(I[NMeV][NMeβAla]T[NMeL][d(β3hA)][NMeβAla][hPhe][NMeL]P[NMeF][NMeA][NMeL])) . Reported Papp A→B?
Out: 0.23

In: Dear colleague, I am looking for the recorded Papp A→B of the following compound: CC[C@H](C)[C@@H]1NC(=O)[C@H](CC(C)C)N(C)C(=O)CN(C)C(=O)C[C@@H](C(=O)N2CCCCC2)NC(=O)[C@H](C)N(C)C(=O)CNC(=O)[C@H](C(C)C)N(C)C(=O)[C@H](C)N(C)C(=O)[C@H](Cc2ccccc2)N(C)C(=O)[C@H](CC(C)C)NC(=O)[C@H](Cc2ccccc2)N(C)C(=O)[C@H]([C@@H](C)O)NC(=O)[C@H](CC(C)C)N(C)C1=O [pd115] ([Sar][NMeL]I[NMeL]T[NMeF]L[NMeF][NMeA][NMeV]G[NMeA]D-Piperidide; lactam N-13)
Out: 0.09

In: Fill blank: measured Papp A→B of the compound CC[C@@H]1NC(=O)[C@H](CC(C)C)N(C)C(=O)[C@H]([C@@H](C)CC)NC(=O)CN(C)C(=O)C[C@@H](C)NC(=O)[C@H](C(C)C)N(C)C(=O)[C@H](COC(C)(C)C)NC(=O)[C@H](CC(C)C)N(C)C(=O)[C@H](C)NC(=O)[C@H](Cc2ccccc2)N(C)C(=O)[C@H](CC(C)C)NC(=O)CN(C)C(=O)[C@H]([C@@H](C)O)NC(=O)[C@H](CC(C)C)N(C)C1=O [pd010] (cyclo(A[NMeL]S(tBu)[NMeV][d(β3hA)][Sar]I[NMeL][Abu][NMeL]T[Sar]L[NMeF])) is ____.
Out: 0.72

Proceeding to the next compound to report its Papp A→B.
In: # input compound: CC[C@@H]1NC(=O)[C@H](Cc2ccccc2)N(C)C(=O)[C@H](C(C)C)NC(=O)[C@H](COC(C)(C)C)NC(=O)[C@H](C)N(C)C(=O)CN(C)C(=O)[C@H](CC(C)C)NC(=O)[C@@H]2CCCN2C(=O)[C@H](C(C)C)N(C)C(=O)[C@H](C)NC(=O)[C@H](CC)N(C)C(=O)[C@@H](C(C)C)NC(=O)C[C@@H](C(=O)N2CCCCC2)NC(=O)[C@H](C(C)C)N(C)C1=O [pd013] ([dV][NMeAbu]A[NMeV]PL[Sar][NMeA]S(tBu)V[NMeF][Abu][NMeV]D-Piperidide; lactam N-14) ; wanted: its Papp A→B
Out: 0.04
